test: chemical genetic growth profiling, strain panel (AID 1159580);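 note: tested at 20 µM; growth read once vehicle control cultures reached saturation at 30 °C; 1 = growth at the plate median or of vehicle wells; lower values mean less growth of the strain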; details: S. cerevisiae deletion strains, growth OD, locus YLR262C, strain YPT6, active compounds read low
In all, about 5,500 compounds went through this assay and about 2,000 (36%) were called active. Not shown: some 18% with an inconclusive outcome. The list shows a part of the results.
MEASURED ATTRIBUTE: normalized growth
Answer field: number only, no words.

# count of solved cases: 4
{"COMPOUND": "NC(=O)NCC(N)C(=O)O (centres undefined)", "normalized growth": 1.1}
{"COMPOUND": "CCOCN(C(=O)CCl)c1c(C)cccc1CC", "normalized growth": 1.01}
{"COMPOUND": "O=C1NN=C2C3CC4CC12CC1(C3)C(=O)NN=C41", "normalized growth": 1.03}
{"COMPOUND": "COc1ccccc1Oc1ccc(C(F)(F)F)cc1NC(=O)NC(=O)c1ccccc1F", "normalized growth": 1.02}

Form field: reported normalized growth of NC(CSCSCC(N)C(=O)O)C(=O)O (centres undefined)
1.12

Form field: reported normalized growth of O=C1NC(=O)/C(=C/c2ccc(OS(=O)(=O)c3ccc(Cl)cc3)cc2)N1
0.996

Form field: reported normalized growth of CC1(C)C(=O)C=C[C@@]2(C)C1CC(=O)[C@]1(C)C2CC[C@@]2(C)[C@H](c3ccoc3)OC(=O)[C@H]3O[C@]321 (some centres undefined)
0.897

Form field: reported normalized growth of COc1ccccc1NC(=O)NCCSCc1ccccc1Cl
0.931

Form field: reported normalized growth of CCN1C[C@]2(C)CC[C@H](OC)[C@]34C2[C@H](O)[C@]2(OCO[C@@]25C[C@H](OC)[C@H]2C[C@]3(O)C5[C@H]2O)C14
1.03

Form field: reported normalized growth of Cc1ccccc1OCC(O)CO (centres undefined)
1.02

Form field: reported normalized growth of CSc1nsc(SC)c1C(=O)NC(=O)Nc1ccc(F)cc1F
1

Form field: reported normalized growth of CC(C)(C)NCC(O)c1cc(O)cc(O)c1 (centres undefined)
0.979

Form field: reported normalized growth of CCC1OC(=O)[C@H](C)C(=O)[C@H](C)[C@@H](OC2O[C@H](C)C[C@H](N(C)C)[C@H]2O)[C@](C)(OC)C2(CCCn3cnc(-c4cccnc4)c3)C[C@@H](C)C(=O)[C@H](C)[C@H]3N(C2)C(=O)O[C@]13C (some centres undefined)
1.04

Form field: reported normalized growth of CNC(=O)Oc1cccc2c1OC(C)(C)O2
1.14

Form field: reported normalized growth of C[C@]12CCC3c4ccc(O)cc4CCC3C1CC[C@@H]2O (some centres undefined)
0.819

Form field: reported normalized growth of COc1cc(OC)c2ccc(=O)oc2c1
0.992

* * *

assay: chemical genetic growth profiling, strain panel (AID 1159580); settings: S. cerevisiae deletion strains, growth OD, locus YHR030C, strain SLT2, active compounds read low
Hit rate of the full screen: of about 5,500 compounds, about 2,000 (36%) were called active. About 18% were inconclusive and are not listed. Some of the results follow.
Just a reminder that ties go to F: only normalized growth strictly below 1 counts as T.

{"COMPOUND": "Cc1nnc2n1N=C(c1ccc(CC(C)C)cc1)C(C)S2 (configuration not stated)", "CATEGORY": "F"}
{"COMPOUND": "Cc1ccc(/C=C2\\CCc3ccccc3C2=O)o1", "CATEGORY": "T"}
{"COMPOUND": "Cc1cc(I)c(C)cc1I", "CATEGORY": "T"}

Dear reviewer, please state whether CCOC(=O)C1=C(N)Oc2ccc(Br)cc2C1C(C#N)C(=O)OCC (configuration not stated) has normalized growth strictly beneath 1.
T

Dear reviewer, please state whether Cc1ccc(-c2csc(-c3ccc(Oc4ccc(C(F)(F)F)cn4)cc3)n2)c(C)c1 has normalized growth strictly beneath 1.
F

Dear reviewer, please state whether Cn1[nH]c(=O)cc1C(=O)NN has normalized growth strictly beneath 1.
F

Dear reviewer, please state whether O=[N+]([O-])c1cc(Cl)cc([N+](=O)[O-])c1Nc1ccccc1 has normalized growth strictly beneath 1.
T

Dear reviewer, please state whether CC(C)CC1NC(=O)NC1=O (configuration not stated) has normalized growth strictly beneath 1.
F

* * *

test: chemical genetic growth profiling, strain panel (AID 1159580); conditions: S. cerevisiae deletion strains, growth OD, locus YOR083W, strain WHI5 (second series), active compounds read low
Screen size: about 5,500 compounds; about 2,000 (36%) were called active. Another 18% or so got no clear call; they are omitted. The list shows a part of the results.
MEASURED ATTRIBUTE: normalized growth
Answer field: number only, no words.

{"COMPOUND": "CCC1(O)CC2CN(CCc3c([nH]c4ccccc34)[C@@](C(=O)OC)(c3cc4c(cc3OC)N(C=O)C3[C@]45CCN4CC=C[C@@](CC)([C@@H](OC(C)=O)[C@]3(O)C(=O)OC)[C@H]45)C2)C1 (some centres undefined)", "MEASURED ATTRIBUTE": "normalized growth", "OBS VALUE": 0.99}
{"COMPOUND": "C=C(C)[C@H]1CN[C@H](C(=O)O)[C@H]1CC(=O)O", "MEASURED ATTRIBUTE": "normalized growth", "OBS VALUE": 1.03}
{"COMPOUND": "NC(=O)CN1CCCC1=O", "MEASURED ATTRIBUTE": "normalized growth", "OBS VALUE": 0.99}

Form field: reported normalized growth of CC(C)(C)NCC(O)c1cc(O)cc(O)c1 (centres undefined)
0.987

Form field: reported normalized growth of OC[C@H]1O[C@@H](n2cnc3c(N[C@H]4CC5CCC4C5)ncnc32)[C@H](O)[C@@H]1O (some centres undefined)
1.04

* * *

test: chemical genetic growth profiling, strain panel (AID 1159580);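 note: tested at 20 µM; growth read once vehicle control cultures reached saturation at 30 °C; 1 = growth at the plate median or of vehicle wells; lower values mean less growth of the strain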; settings: S. cerevisiae deletion strains, growth OD, locus YDR101C, strain arx1, active compounds read low
Screen size: about 5,500 compounds; about 2,000 (36%) were called active. Another 18% or so got no clear call; they are omitted. The list shows a part of the results.
MEASURED ATTRIBUTE: normalized growth
Answer field: number only, no words.

{"COMPOUND": "C[C@@H]1O[C@@H](OC[C@H]2OC(Oc3c(-c4ccc(OCCO)c(OCCO)c4)oc4cc(OCCO)cc(O)c4c3=O)[C@H](O)[C@@H](O)[C@@H]2O)[C@H](O)[C@H](O)[C@H]1O (some centres undefined)", "normalized growth": 1.04}
{"COMPOUND": "COc1cc(O)c2c(=O)c(O)c(-c3ccc(O)c(O)c3)oc2c1", "normalized growth": 0.992}
{"COMPOUND": "COc1cc(OC)c2c(=O)c(O)c(-c3ccc(OC)c(OC)c3)oc2c1", "normalized growth": 0.811}

Form field: reported normalized growth of COc1cc(OC)c2c(=O)c(OC)c(-c3ccc(OC)c(OC)c3)oc2c1
1.01

* * *

normalized growth by entry:
assay: chemical genetic growth profiling, strain panel (AID 1159580);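 note: tested at 20 µM; growth read once vehicle control cultures reached saturation at 30 °C; 1 = growth at the plate median or of vehicle wells; lower values mean less growth of the strain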; details: S. cerevisiae deletion strains, growth OD, locus YAL030W, strain snc1, active compounds read low
Hit rate of the full screen: of about 5,500 compounds, about 2,000 (36%) were called active. Another 18% or so got no clear call; they are omitted. Some of the results follow.
Answer field: number only, no words.

{"COMPOUND": "COc1ccc(-c2cc(=O)c3c(O)cc(O[C@@H]4O[C@H](CO[C@H]5O[C@H](C)[C@@H](O)[C@H](O)[C@@H]5O)[C@@H](O)[C@H](O)[C@H]4O)cc3o2)cc1O", "normalized growth": 1.02}
{"COMPOUND": "CN[C@@H]1C(O)[C@@H](O[C@@H]2[C@@H](O)[C@H](O[C@H]3OC(CN)=CC[C@H]3N)[C@@H](N)C[C@H]2N)OC[C@]1(C)O (stereo partly drawn)", "normalized growth": 1.01}

Consider now this further compound.
Form field: reported normalized growth of O=c1c(O)c(-c2ccc(O)c(O)c2)oc2c(O[C@@H]3O[C@H](CO)[C@H](O)[C@@H](O)[C@H]3O)c(O)cc(O)c12
1.01

* * *

assay: chemical genetic growth profiling, strain panel (AID 1159580);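 note: tested at 20 µM; growth read once vehicle control cultures reached saturation at 30 °C; 1 = growth at the plate median or of vehicle wells; lower values mean less growth of the strain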; details: S. cerevisiae deletion strains, growth OD, locus YDR137W, strain rgp1
Among all 5,500 compounds or so, about 2,000 (36%) were called active. Not shown: some 18% with an inconclusive outcome. Cut-off read from the data, not from the text of the source: active = normalized growth mostly below about 0.91 (no sharp cut-off); inconclusive = no clear call, values can overlap the other calls; inactive = mostly above about 0.92. The list shows a part of the results.
Result category, one only: 1 for active, -1 for inactive

Solved cases (4 shown):
{"COMPOUND": "CC1(C)C(=O)C=C[C@@]2(C)C1C[C@@H](O)[C@]1(C)C2CC[C@@]2(C)[C@H](c3ccoc3)OC(=O)[C@H]3O[C@]321 (stereo partly drawn)", "CATEGORY": -1}
{"COMPOUND": "NC(N)=NC(=O)c1nc(Cl)c(N)nc1N", "CATEGORY": -1}
{"COMPOUND": "CC1(C)C=CC(=O)[C@@]2(C)C1CC(=O)[C@]1(C)C2CC[C@@]2(C)[C@H](c3ccoc3)OC(=O)C3OC321 (stereo partly drawn)", "CATEGORY": 1}
{"COMPOUND": "CCC1OC(=O)[C@H](C)C(=O)[C@H](C)[C@@H](OC2O[C@H](C)C[C@H](N(C)C)[C@H]2O)[C@](C)(OC)C2(CCCn3cnc(-c4cccnc4)c3)C[C@@H](C)C(=O)[C@H](C)[C@H]3N(C2)C(=O)O[C@]13C (stereo partly drawn)", "CATEGORY": -1}

Which outcome was entered for the compound CC(=O)O[C@@H]1CC2C(C)(C)C(=O)C=C[C@]2(C)C2CC[C@@]3(C)[C@H](c4ccoc4)OC(=O)[C@H]4O[C@]43[C@@]21C (stereo partly drawn) in this test?
-1

Which outcome was entered for the compound CC1(C)C2CC(=O)[C@]3(C)C(CC[C@@]4(C)[C@H](c5ccoc5)OC(=O)[C@H]5O[C@]543)[C@@]2(C)C(=O)C[C@H]1O (stereo partly drawn) in this test?
-1

Which outcome was entered for the compound CCCC(C)(COC(N)=O)COC(=O)NC(C)C (stereo not drawn) in this test?
-1

Which outcome was entered for the compound CC1(C)O[C@H]2CC(=O)OC[C@]23[C@H]2CC[C@@]4(C)[C@H](c5ccoc5)OC(=O)[C@H]5O[C@]54[C@]2(C)C(=O)C[C@@H]13 in this test?
-1
